Measured growth inhibition of individual entries
- Test system: SUDIPGXIII (diffuse intrinsic pontine glioma line)
- procedure_details: growth inhibition (% activity, log2 RLU normalised to DMSO / staurosporine); higher = more growth inhibition
- settings: 33 µM
quantity_measured: growth inhibition

compound	quantity_measured	val
COC(=O)C1=C(C)NC(C)=C(C(=O)OC(C)C)C1c1cccc2nonc12 (stereo not given)	growth inhibition	3.66%
C#CCC(Cc1cnc2nc(N)nc(N)c2n1)c1ccc(C(=O)N[C@@H](CCC(=O)O)C(=O)O)cc1 (stereo not given in full)	growth inhibition	13%
CN1CCN(C2=Nc3ccccc3Oc3ccc(Cl)cc32)CC1	growth inhibition	0.859%
NS(=O)(=O)c1cc2c(cc1Cl)NCNS2(=O)=O	growth inhibition	1.25%
O=C1O[C@H]([C@@H](O)CO)C([O-])=C1O.[Na+]	growth inhibition	2.95%
COc1cc2ncnc(Nc3ccc(F)c(Cl)c3)c2cc1OCCCN1CCOCC1	growth inhibition	0.759%
O=c1oc2cc(O)ccc2s1	growth inhibition	28.9%
O=C([O-])c1ccccc1O.[Na+]	growth inhibition	0.791%
CCN[C@H]1C[C@H](C)S(=O)(=O)c2sc(S(N)(=O)=O)cc21	growth inhibition	0.067%
CCCCCCCCOc1ccccc1C(=O)Nc1ccc(C(=O)OCC[N+](C)(CC)CC)cc1	growth inhibition	2.78%
CC[C@H]1OC(=O)C[C@@H](O)[C@H](C)[C@@H](O[C@@H]2O[C@H](C)[C@@H](O)[C@H](N(C)C)[C@H]2O)[C@@H](CCN2C[C@H](C)C[C@H](C)C2)C[C@@H](C)C(=O)/C=C/C(C)=C/[C@@H]1CO[C@@H]1O[C@H](C)[C@@H](O)[C@@H](OC)[C@H]1OC	growth inhibition	1.2%
Oc1ccc(OC2CCCCO2)cc1 (stereo not given)	growth inhibition	0.895%
OCCOCCN1CCN(C(c2ccccc2)c2ccc(Cl)cc2)CC1 (stereo not given)	growth inhibition	1.1%
CC[C@@]1(O)C(=O)OCc2c1cc1n(c2=O)Cc2cc3c(CN(C)C)c(O)ccc3nc2-1	growth inhibition	4.79%
C[C@]12CCC3=C4CCC(=O)C=C4CC[C@H]3[C@@H]1CC[C@@]2(O)CC#N	growth inhibition	0.668%
COC(=O)N/N=C/c1c[n+]([O-])c2ccccc2[n+]1[O-]	growth inhibition	-3.09%
CN1CCC(=C2c3ccccc3C=Cc3ccccc32)CC1	growth inhibition	1.93%
CN1C(C(=O)Nc2ccccn2)=C(O)c2sc(Cl)cc2S1(=O)=O	growth inhibition	2.15%
CCOc1nc2cccc(C(=O)O)c2n1Cc1ccc(-c2ccccc2-c2nnn[nH]2)cc1	growth inhibition	-0.345%
O=C(O)CCc1nc(-c2ccccc2)c(-c2ccccc2)o1	growth inhibition	1.19%
CC(=O)OCC(=O)[C@@]1(O)CC[C@H]2[C@@H]3CCC4=CC(=O)C=C[C@]4(C)[C@H]3[C@@H](O)C[C@@]21C	growth inhibition	2.13%
CC(=O)Oc1ccc(C(c2ccc(OC(C)=O)cc2)c2ccccn2)cc1	growth inhibition	5.98%
CCCCNc1ccc(C(=O)OCCN(C)C)cc1	growth inhibition	1.02%
c1ccc2c(CC3=NCCN3)cccc2c1	growth inhibition	1.34%
C[C@H]1C[C@@H]2[C@H]([C@@H](O)C[C@@]3(C)[C@H]2CC[C@]3(O)C(=O)CO)[C@@]2(C)C=CC(=O)C=C12	growth inhibition	1.59%
CC1CNc2c(cccc2S(=O)(=O)N[C@@H](CCCNC(=N)N)C(=O)N2CC[C@@H](C)C[C@@H]2C(=O)O)C1 (stereo not given in full)	growth inhibition	-1.66%
[O-][n+]1cccc(CO)c1	growth inhibition	2.91%
O=C1CCc2ccc(OCCCCN3CCN(c4cccc(Cl)c4Cl)CC3)cc2N1	growth inhibition	14.8%
CC(C[N+](C)(C)C)OC(N)=O (stereo not given)	growth inhibition	0.126%
O=C(c1ccc(OCCN2CCCCC2)cc1)c1c(-c2ccc(O)cc2)sc2cc(O)ccc12	growth inhibition	2.77%
COc1nc(N)nc2c1ncn2[C@@H]1O[C@H](CO)[C@@H](O)[C@@H]1O	growth inhibition	-2.52%
CSc1ccc2c(c1)N(CCC1CCCCN1C)c1ccccc1S2 (stereo not given)	growth inhibition	0.0949%
NCCCC[C@H](N[C@@H](CCc1ccccc1)C(=O)O)C(=O)N1CCC[C@H]1C(=O)O	growth inhibition	-4.08%
CCOC(=O)c1c(CSc2ccccc2)n(C)c2cc(Br)c(O)c(CN(C)C)c12	growth inhibition	3.61%
CO[C@H]1/C=C/O[C@@]2(C)Oc3c(C)c(O)c4c(O)c(c(/C=N/N5CCN(C6CCCC6)CC5)c(O)c4c3C2=O)NC(=O)/C(C)=C\C=C\[C@H](C)[C@H](O)[C@@H](C)[C@@H](O)[C@@H](C)[C@H](OC(C)=O)[C@@H]1C	growth inhibition	0.627%
CC(=O)OCC(=O)[C@H]1CC[C@H]2[C@@H]3CCC4=CC(=O)CC[C@]4(C)[C@H]3CC[C@]12C	growth inhibition	5.18%
COC(=O)CCc1ccc(OCC(O)CNC(C)C)cc1 (stereo not given)	growth inhibition	0.0941%
COc1ccccc1OCC(O)COC(N)=O (stereo not given)	growth inhibition	-0.184%
CN(Cc1cc(Br)cc(Br)c1N)C1CCCCC1	growth inhibition	-1.94%
c1ccc2[nH]c(-c3cscn3)nc2c1	growth inhibition	0.000357%
